Test system: HCT-116
ASSAY INFO: MTT antitumor assay, HCT-116
STUDY CONDITIONS: Homo sapiens, HCT-116, read-out: IC50 (μM) HCT-116, human colon cancer cell line, MTT, mean ± SD, n = 3
REPORTED PROPERTY: IC50 (µM)

Worked set:
>>> val("CC(C(=O)Sc1ccccc1)c1ccc(-c2ccccc2)c(F)c1 (stereo not shown) [3a]")
78.1
>>> val("O=C(Cc1ccccc1Nc1c(Cl)cccc1Cl)SC1CCCCC1 [6b]")
91.2
>>> val("CC(C)Cc1ccc(C(C)C(=O)SC2CCCCC2)cc1 (stereo not shown) [1b]")
97.6

I = CC(=O)Oc1ccccc1C(=O)Sc1ccccc1 [4a, 2-[(Phenylthio)carbonyl]phenyl acetate]
II = CC1=C(CC(=O)Sc2ccccc2)c2cc(F)ccc2C1=Cc1ccc([S+](C)[O-])cc1 (stereo not shown) [8a]
III = CC(C(=O)SC1CCCCC1)c1ccc(-c2ccccc2)c(F)c1 (stereo not shown) [3b]
IV = COc1ccc2cc(C(C)C(=O)Sc3ccccc3)ccc2c1 (stereo not shown) [5a]
Problem: Let's sort these by IC50, smallest first. Go ahead? API: response body holds the labels in the requested order.
Solution: II, III, IV, I
